# Test system: LOX IMVI
# Assay: NCI tumour cell line growth inhibition, 48 h
Activity calls are given as the source filed them. No stated cut-off is given here; in the data, active = GI50 up to about 1.1 µM and inactive = higher.
Form entry, call: pick from active, inactive

Observe how each entry below is paired with its result.
>  <Molecule>
COP(=O)(/C=C/c1cc(C(=O)OCc2ccccc2)n(S(=O)(=O)c2ccccc2)c1)OC

>  <Class Label>
inactive

$$$$
>  <Molecule>
CN(C)CCNC(=O)c1cccc2c(NC(CCC(N)=O)C(=O)O)c3ccccc3nc12 (configuration not stated)

>  <Class Label>
inactive

$$$$

For this molecule, state the assay outcome: `CCOC(=O)/C=C/C(=O)O/C=C/[N+](=O)[O-]`
inactive

For this molecule, state the assay outcome: Clc1ccc(C(c2ccccc2Cl)C(Cl)Cl)cc1 (configuration not stated) [MITOTANE]
inactive

For this molecule, state the assay outcome: `c1cnc2c(c1)Nc1cnncc1S2`
inactive

For this molecule, state the assay outcome: `O=C1C=CC(=O)c2c(NCC3CC3)ccc(NCC3CC3)c21`
inactive

For this molecule, state the assay outcome: `CC1=C/C(=N/N2C(=O)/C(=C/c3ccc(Cl)cc3)N=C2c2ccccc2)CC(C)(C)C1`
inactive

For this molecule, state the assay outcome: `C/C(=N/NC(N)=S)c1ccc2ccccc2c1`
inactive

For this molecule, state the assay outcome: `c1ccc(P(=Nc2ccccc2N=P(c2ccccc2)(c2ccccc2)c2ccccc2)(c2ccccc2)c2ccccc2)cc1`
active

For this molecule, state the assay outcome: COc1cccc2c1OC1c3ccccc3OCC1(O)C2 (configuration not stated)
inactive

For this molecule, state the assay outcome: `Cn1c2cc([N+](=O)[O-])ccc2c(=O)c2c(O)cc3c(c21)C=CC(C)(C)O3`
inactive

For this molecule, state the assay outcome: COC(=O)C1C(O)C(C(=O)OC)C(C)N(C)C1C (configuration not stated)
inactive

For this molecule, state the assay outcome: CCCCCCCCCCCCCCCCCCNc1ccn(C2OC(COP(=O)(O)OCC(COP(=O)(O)OCC3OC(n4cc(C)c(=O)[nH]c4=O)CC3N=[N+]=[N-])OCCCCCCCCCCCCCCCCCC)C(O)C2O)c(=O)n1 (configuration not stated)
inactive

For this molecule, state the assay outcome: `O=[N+]([O-])c1c(F)c(F)c2c(c1F)N(CCCCCl)c1ccccc1S2`
inactive

For this molecule, state the assay outcome: COc1ccc(N2C(=O)C3c4[nH]c5ccc(OC)cc5c4C4CCC(C(C)C)CC4C3C2=O)cc1 (configuration not stated)
inactive

For this molecule, state the assay outcome: `O=S1(=O)OCCOS(=O)(=O)C1(I)I`
inactive

For this molecule, state the assay outcome: `Cn1c(=O)c2[nH]c(/N=N\n3ccc4ccccc43)nc2n(C)c1=O`
inactive

For this molecule, state the assay outcome: O=C1OCC2OC(=O)c3cc(O)c(O)c(O)c3-c3c(O)c(O)c(O)c4c3C(=O)OC(C2OC(=O)c2cc(O)c(O)c(O)c2-c2c1cc(O)c(O)c2O)C1OC(=O)C2C4=C(O)C(=O)C23Oc2cc(O)c4c(c2[C@H]13)O[C@H](c1ccc(O)c(O)c1)[C@@H](O)C4 (some centres not stated)
inactive

For this molecule, state the assay outcome: O=C(NNC(=O)c1ccccc1S)c1ccccc1S [BIS(THIOSALICYL)HYDRAZIDE]
inactive

For this molecule, state the assay outcome: `O=C1Nc2ccccc2C1=Nc1ccc(S(=O)(=O)Nc2nccs2)cc1`
inactive

For this molecule, state the assay outcome: `c1cc(-c2ccsc2-c2ccsc2)cs1`
inactive

###

# Tested on: MDA-MB-435
# Assay: NCI tumour cell line growth inhibition, 48 h
Where a name gives a salt, the structure may show the parent alone. Activity calls are given as the source filed them. No stated cut-off is given here; in the data, active = GI50 up to about 1.1 µM and inactive = higher.
Some molecules, each annotated with its measured GI50.

Some entries whose results are on file:
>  <Molecule>
Cn1c(=O)c2[nH]c(/N=N\n3ccc4ccccc43)nc2n(C)c1=O

>  <GI50>
> 100 µM (inactive)

$$$$
>  <Molecule>
NC(=O)c1cc2cc(Cl)cc(Cl)c2o/c1=N\c1ccc(F)cc1

>  <GI50>
20 µM (inactive)

$$$$
>  <Molecule>
COCn1c(C)c(C)c2c(=O)oc(N(C)C)nc21

>  <GI50>
> 100 µM (inactive)

$$$$
>  <Molecule>
Cc1cc(C)nc(NS(=O)(=O)c2ccc(NN=c3c4ccccc4n(C)c4ccccc34)cc2)n1

>  <GI50>
23.8 µM (inactive)

$$$$
>  <Molecule>
Clc1ccc(C(c2ccccc2Cl)C(Cl)Cl)cc1 (stereo unspecified) [MITOTANE]

>  <GI50>
3.08 µM (inactive)

$$$$

For record COc1ccc(Cc2nccc3cc(OC)c(OC)cc23)cc1OC [PAPAVERINE HYDROCHLORIDE] the listed GI50 is > 100 µM (inactive)

For record CCOP(=O)(OCC)C(N)c1ccc(Cl)cc1 (stereo unspecified) the listed GI50 is > 100 µM (inactive)

###

# System: KM12
# Assay: NCI tumour cell line growth inhibition, 48 h
Calls of active or inactive are those of the source. Rule as the data show it: active = GI50 up to about 1.1 µM and inactive = higher.
Form entry, call: pick from active, inactive

Observe how each entry below is paired with its result.
>  <Given Smiles>
CCOC(=O)Nc1cc2c(c(N)n1)N=C(c1ccc3ccccc3c1)CN2

>  <Class Label>
active

$$$$
>  <Given Smiles>
CN1B(c2ccccc2)N(C)C(=O)N(C)C1=O

>  <Class Label>
inactive

$$$$
>  <Given Smiles>
CCOc1ccc(NC(=O)C(=O)CC(=O)c2sc(NNC(C)=O)nc2C)cc1

>  <Class Label>
inactive

$$$$

Kindly review the next molecule as well.
For this molecule, state the assay outcome: `Cc1cc(C)nc(NS(=O)(=O)c2ccc(NN=c3c4ccccc4n(C)c4ccccc34)cc2)n1`
inactive

###

# Test system: SK-MEL-2
# Assay: NCI tumour cell line growth inhibition, 48 h
The source made the active and inactive calls. Cut-off read from the data, not from the text of the source: active = GI50 up to about 1.1 µM and inactive = higher.
Some compounds, each annotated with its measured GI50.

Some entries whose results are on file:
>  <Given Smiles>
Cc1cc(S(=O)(=O)Nc2nc(Nc3ccc(Cl)cc3)n[nH]2)c(S)cc1Cl

>  <GI50>
> 100 µM (inactive)

$$$$
>  <Given Smiles>
O=C(N/N=C(COc1ccc([N+](=O)[O-])cc1)\N=C\c1ccncc1)c1ccncc1

>  <GI50>
> 100 µM (inactive)

$$$$

Consider now this further compound.
For record `C[C@]12CC[C@H]3[C@@H](CC=C4C[C@@H](O)CC[C@@]43C)[C@@H]1C/C(=C\c1cccnc1)[C@@H]2O` the listed GI50 is 30.8 µM (inactive)

###

Some molecules, each annotated with its measured GI50.
# Test system: HT-29
# Assay: NCI tumour cell line growth inhibition, 48 h
Calls of active or inactive are those of the source. Cut-off read from the data, not from the text of the source: active = GI50 up to about 1.1 µM and inactive = higher.

Some entries whose results are on file:
>  <Molecule>
Cc1cc(Cl)ccc1NC(=O)CC1SC(NC(=O)c2ccccc2Cl)=NC1=O (stereo not given)

>  <Measured Endpoint>
GI50

>  <Result>
21.5 µM (inactive)

$$$$
>  <Molecule>
CCOC(=O)NC(NC(C)CC)(C(F)(F)F)C(F)(F)F (stereo not given)

>  <Measured Endpoint>
GI50

>  <Result>
> 100 µM (inactive)

$$$$
>  <Molecule>
CN(C)c1ccc(/C=C(\NC(=O)c2ccccc2)c2nc3cncnc3[nH]2)cc1

>  <Measured Endpoint>
GI50

>  <Result>
> 100 µM (inactive)

$$$$
>  <Molecule>
O=[N+]([O-])c1ccc2sc(/C=N/c3ccc(O)cc3)cc2c1

>  <Measured Endpoint>
GI50

>  <Result>
46.9 µM (inactive)

$$$$
>  <Molecule>
CCc1ccccc1NC(=O)C(=O)C(C#N)c1ccccc1Cl (stereo not given)

>  <Measured Endpoint>
GI50

>  <Result>
> 100 µM (inactive)

$$$$

For record `O=C1c2c(Br)sc(Br)c2C(=O)C1(O)O` the listed GI50 is 39.3 µM (inactive)

###

Some molecules, each annotated with its measured GI50.
# System: HOP-62
# Assay: NCI tumour cell line growth inhibition, 48 h
Active and inactive are the calls of the source. Cut-off read from the data, not from the text of the source: active = GI50 up to about 1.1 µM and inactive = higher.

Some entries whose results are on file:
>  <Molecule>
O=C(Cc1nc2ccc([N+](=O)[O-])cc2nc1O)C(=O)Nc1cc(Cl)c(Cl)cc1Cl

>  <GI50>
> 100 µM (inactive)

$$$$
>  <Molecule>
O=C1CCC2(c3ccccc3)Nc3ccc(Cl)cc3N12 (stereo not drawn)

>  <GI50>
> 100 µM (inactive)

$$$$
>  <Molecule>
CN1N=CSC12C(=O)N(c1ccc(Cl)cc1)C(=O)N2c1ccc(Cl)cc1 (stereo not drawn)

>  <GI50>
3.69 µM (inactive)

$$$$
>  <Molecule>
CC(=O)N[C@@H](Cc1ccc(O)cn1)C(=O)NCc1ccc2c(c1)OCO2

>  <GI50>
> 100 µM (inactive)

$$$$

For record CC(NC(=O)C(N)Cc1ccc(O)cn1)C(=O)O (stereo not drawn) the listed GI50 is > 100 µM (inactive)

For record COc1ccc(-c2cc(-c3ccco3)c(C#N)c(=S)n2C2OC(COC(C)=O)C(OC(C)=O)C(OC(C)=O)C2OC(C)=O)cc1 (stereo not drawn) the listed GI50 is 2.61 µM (inactive)

For record `O=C(O)c1ccc2c(O)c(O)ccc2c1` the listed GI50 is 20.7 µM (inactive)

For record COC1OC2=CCC3C(=O)NC(=O)C3C2[C@H](OCc2ccccc2)C1OCc1ccccc1 (stereo partly drawn) the listed GI50 is 17.9 µM (inactive)
